Source listed as ChEMBL document CHEMBL1201862.

system: RPMI-8226; experiment: NCI tumour cell line growth inhibition, 48 h
The source made the active and inactive calls. Cut-off read from the data, not from the text of the source: active = GI50 up to about 1.1 µM and inactive = higher.
observed property: GI50

Examples from the recorded data:
>  <compound>
O=C(O)CNS(=O)(=O)c1ccc(NC(=O)c2ccc([N+](=O)[O-])cc2)cc1

>  <GI50>
> 100 µM (inactive)

$$$$
>  <compound>
CCCCCCCCCCCCCCCCCCNc1ccn(C2OC(COP(=O)(O)OCC3OC(n4ccc(NC(=O)CCCCCCCCCCCCCCCCC)nc4=O)C(OC(C)=O)C3OC(C)=O)C(OC(C)=O)C2OC(C)=O)c(=O)n1 (centres undefined)

>  <GI50>
> 100 µM (inactive)

$$$$
>  <compound>
Cc1nc2nn(C)cc2c(=O)n1/N=C/c1ccccc1

>  <GI50>
> 100 µM (inactive)

$$$$

// next item, GI50 requested
Lookup: Give a short answer stating reported GI50 for "O=C1c2cc([N+](=O)[O-])cnc2S(=O)(=O)N1c1ccc(Oc2ccccc2)cc1" .
Found: > 100 µM (inactive)
